Experiment: Plasma pharmacokinetics of copanlisib
Type: in vivo, human
Settings: human, plasma, intravenous, 0.4 mg/kg, tmax, cycle 1 day 1; cohort 3, 0.4 mg/kg, n=2; range
reported-metric: Tmax

Record COc1c(OCCCN2CCOCC2)ccc2c1N=C(NC(=O)c1cnc(N)nc1)N1CCN=C21 [copanlisib, Copanlisib] , field Tmax: 30 to 66 min

###

Assay: Plasma pharmacokinetics of copanlisib
Format: in vivo, human
Details: human, plasma, intravenous, 0.1 mg/kg, Cmax, cycle 1 day 15; cohort 1, 0.1 mg/kg, n=1; individual data
reported-metric: Cmax (ng/mL)
Give the value, in units of ng/mL, as a plain number.

Record COc1c(OCCCN2CCOCC2)ccc2c1N=C(NC(=O)c1cnc(N)nc1)N1CCN=C21 [copanlisib, Copanlisib] , field Cmax: 37.6

###

Test: Plasma pharmacokinetics of copanlisib
Format: in vivo, human
Conditions: human, plasma, intravenous, 0.4 mg/kg, AUC(0–25), cycle 1 day 1; cohort 3, 0.4 mg/kg, n=2; range
reported-metric: AUC(0-t)

Record COc1c(OCCCN2CCOCC2)ccc2c1N=C(NC(=O)c1cnc(N)nc1)N1CCN=C21 , field AUC(0-t): 348 to 556 ng·h/mL

###

Assay: Plasma pharmacokinetics of copanlisib
Assay type: in vivo, human
Conditions: human, plasma, intravenous, 0.8 mg/kg, AUC(0–25), cycle 1 day 1; NHL expansion, 0.8 mg/kg, n=9; geometric mean (%CV)
reported-metric: AUC(0-t) (ng·h/mL)
Give the value, in units of ng·h/mL, as a plain number.

Record COc1c(OCCCN2CCOCC2)ccc2c1N=C(NC(=O)c1cnc(N)nc1)N1CCN=C21 , field AUC(0-t): 1350

###

Assay: Plasma pharmacokinetics of copanlisib
Type: in vivo, human
Details: human, plasma, intravenous, 1.2 mg/kg, AUC(0–25), cycle 1 day 1; cohort 5, 1.2 mg/kg, n=2; range
reported-metric: AUC(0-t)

Record COc1c(OCCCN2CCOCC2)ccc2c1N=C(NC(=O)c1cnc(N)nc1)N1CCN=C21 [copanlisib, Copanlisib] , field AUC(0-t): 2510 to 3820 ng·h/mL

###

Experiment: Plasma pharmacokinetics of copanlisib
Format: in vivo, human
Conditions: human, plasma, intravenous, 1.2 mg/kg, t1/2, cycle 1 day 1; cohort 5, 1.2 mg/kg, n=1
reported-metric: half-life (h)
Give the value, in units of h, as a plain number.

Record COc1c(OCCCN2CCOCC2)ccc2c1N=C(NC(=O)c1cnc(N)nc1)N1CCN=C21 [copanlisib, Copanlisib] , field half-life: 33

###

Assay: Plasma pharmacokinetics of copanlisib
Format: in vivo, human
Conditions: human, plasma, intravenous, 0.4 mg/kg, t1/2, cycle 1 day 1; diabetic expansion, 0.4 mg/kg, n=2; value (%)
reported-metric: half-life

Record COc1c(OCCCN2CCOCC2)ccc2c1N=C(NC(=O)c1cnc(N)nc1)N1CCN=C21 [copanlisib, Copanlisib] , field half-life: 34.4 h

###

Experiment: Plasma pharmacokinetics of copanlisib
Assay type: in vivo, human
Conditions: human, plasma, intravenous, 0.8 mg/kg, Cmax, cycle 1 day 15; cohort 4, 0.8 mg/kg, n=6; geometric mean (%CV)
reported-metric: Cmax (ng/mL)
Give the value, in units of ng/mL, as a plain number.

Record COc1c(OCCCN2CCOCC2)ccc2c1N=C(NC(=O)c1cnc(N)nc1)N1CCN=C21 , field Cmax: 370
